Molecular target: HDAC1 enzyme (Homo sapiens, UniProt Q13547)
Construct: transducing full length HDAC1 and HDAC6 genes into Sf-9 insect cells; GST; purchased SignalChem; host or cells: Sf-9 insect cells
Sequence (Q13547 whole entry): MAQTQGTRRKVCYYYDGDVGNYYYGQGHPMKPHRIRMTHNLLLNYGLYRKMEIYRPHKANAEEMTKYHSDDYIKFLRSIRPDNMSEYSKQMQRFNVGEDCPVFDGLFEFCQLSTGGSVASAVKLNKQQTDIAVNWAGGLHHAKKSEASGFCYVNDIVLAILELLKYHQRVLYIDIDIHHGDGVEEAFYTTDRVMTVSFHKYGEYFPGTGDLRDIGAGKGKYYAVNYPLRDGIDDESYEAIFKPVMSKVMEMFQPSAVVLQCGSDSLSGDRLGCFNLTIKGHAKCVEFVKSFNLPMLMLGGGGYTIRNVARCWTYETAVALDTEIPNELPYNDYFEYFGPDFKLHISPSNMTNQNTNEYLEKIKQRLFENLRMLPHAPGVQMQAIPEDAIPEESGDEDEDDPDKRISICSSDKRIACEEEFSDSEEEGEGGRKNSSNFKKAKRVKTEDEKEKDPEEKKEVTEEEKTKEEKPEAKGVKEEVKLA
Assay: HDAC1/6 Enzyme Inhibitory Assay (HDAC-Glo I/II Assay kit), HDAC1
Format: biochemical
Conditions: 1 μM test compound; wells without enzyme = 100% inhibition; read-out: HDAC1 inhibitory rate (%) (1 μM)
Label rule, in plain words: inhibition at 1 µM of 80% and up is MET, under 80% is NOT MET.

Observe how each entry below is paired with its result.
O=C1c2cc(-c3noc(C(F)(F)F)n3)ccc2CN1[C@@H]1CCNC[C@H]1c1ccccc1    MET
O=C(N[C@@H]1CCCC[C@H]1N1Cc2ccc(-c3noc(C(F)(F)F)n3)cc2C1=O)c1cocn1    NOT MET
O=C1CCCN1c1cccc(Cl)c1N1Cc2ccc(-c3noc(C(F)(F)F)n3)cc2C1=O    NOT MET

Identify whether the reported inhibition at 1 µM of the following molecule is 80% or greater: NC(=O)N1CC[C@@H](N2Cc3ccc(-c4noc(C(F)(F)F)n4)cc3C2=O)[C@H](c2ccccc2)C1
MET

Has O=C(N[C@@H]1CCCC[C@H]1N1Cc2ccc(-c3noc(C(F)(F)F)n3)cc2C1=O)N1CC(F)C1 a recorded inhibition at 1 µM greater than or equal to 80%?
NOT MET

###

Measured inhibition at 1 µM accompanies every entry in the list below.
Target: HDAC6 enzyme (Homo sapiens, UniProt Q9UBN7)
Construct: transducing full length HDAC1 and HDAC6 genes into Sf-9 insect cells; GST; purchased SignalChem; host or cells: Sf-9 insect cells
Sequence (Q9UBN7 1-1215): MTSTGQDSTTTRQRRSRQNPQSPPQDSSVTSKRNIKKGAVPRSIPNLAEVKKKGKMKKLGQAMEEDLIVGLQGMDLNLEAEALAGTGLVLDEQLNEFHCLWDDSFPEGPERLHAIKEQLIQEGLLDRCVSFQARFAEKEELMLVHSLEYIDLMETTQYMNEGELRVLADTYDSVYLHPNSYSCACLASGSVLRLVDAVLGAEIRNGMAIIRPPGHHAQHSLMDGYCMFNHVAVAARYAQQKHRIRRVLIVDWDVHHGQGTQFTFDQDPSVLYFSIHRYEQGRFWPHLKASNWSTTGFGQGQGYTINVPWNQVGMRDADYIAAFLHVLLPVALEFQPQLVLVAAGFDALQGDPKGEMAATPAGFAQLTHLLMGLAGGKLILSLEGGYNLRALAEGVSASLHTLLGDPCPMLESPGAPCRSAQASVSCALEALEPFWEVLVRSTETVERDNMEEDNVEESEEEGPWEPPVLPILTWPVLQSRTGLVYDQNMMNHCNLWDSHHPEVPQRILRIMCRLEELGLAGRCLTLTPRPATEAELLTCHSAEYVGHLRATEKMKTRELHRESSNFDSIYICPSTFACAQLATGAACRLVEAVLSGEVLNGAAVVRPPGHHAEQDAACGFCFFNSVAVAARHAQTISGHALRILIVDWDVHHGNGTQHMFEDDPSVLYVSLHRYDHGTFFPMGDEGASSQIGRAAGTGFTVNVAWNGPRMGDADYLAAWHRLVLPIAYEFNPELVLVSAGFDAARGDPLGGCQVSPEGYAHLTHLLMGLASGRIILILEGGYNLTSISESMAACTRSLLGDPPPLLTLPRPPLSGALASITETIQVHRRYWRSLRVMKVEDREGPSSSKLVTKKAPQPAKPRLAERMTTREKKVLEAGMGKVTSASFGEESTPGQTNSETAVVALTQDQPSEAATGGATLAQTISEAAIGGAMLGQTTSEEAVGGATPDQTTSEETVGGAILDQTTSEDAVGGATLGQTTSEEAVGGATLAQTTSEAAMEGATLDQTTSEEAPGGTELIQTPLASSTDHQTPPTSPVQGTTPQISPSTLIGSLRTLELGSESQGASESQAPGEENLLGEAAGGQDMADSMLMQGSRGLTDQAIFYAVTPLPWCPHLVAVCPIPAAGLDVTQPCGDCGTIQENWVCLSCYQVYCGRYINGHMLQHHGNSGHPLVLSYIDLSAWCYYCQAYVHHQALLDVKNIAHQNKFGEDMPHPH
Assay: HDAC1/6 Enzyme Inhibitory Assay (HDAC-Glo I/II Assay kit), HDAC6
Format: biochemical
Conditions: 1 μM test compound; wells without enzyme = 100% inhibition; read-out: HDAC6 inhibitory rate (%) (1 μM)
Procedure: HDAC1/6 Enzyme Inhibitory Assay HDAC1 enzyme and HDAC6 enzyme each prepared by transducing full length HDAC1 and HDAC6 genes into Sf-9 insect cells and purifying by GST affinity column were purchased from SignalChem. Using these enzymes, HDAC1 and/or HDAC6 enzyme inhibitory activities of the compound of the present invention were evaluated. […] After reacting at room temperature for 20 min, luminescence level was measured using plate reader Envision (PerkinElmer). […]
Kindly provide the numeric value in % only, without the unit symbol.

Study these solved cases before continuing.
O=C1c2cc(-c3noc(C(F)(F)F)n3)ccc2CN1[C@@H]1CCNC[C@H]1c1ccc(Cl)c(F)c1 (relative stereo)    97
N[C@@H]1CCCC[C@H]1N1Cc2ccc(-c3noc(C(F)(F)F)n3)cc2C1=O [Example 28]    89
CC(=O)N1CC[C@@H](N2Cc3cc(-c4noc(C(F)(F)F)n4)ccc3C2=O)[C@H](c2ccccc2)C1 (relative stereo)    89

Which inhibition at 1 µM is reported for this compound? O=C(N[C@@H]1COCC[C@H]1N1Cc2ccc(-c3noc(C(F)(F)F)n3)cc2C1=O)C1CC1
99

Fill in the blank: the reported inhibition at 1 µM of CC1(C(=O)N[C@@H]2CCOC[C@H]2N2Cc3ccc(-c4noc(C(F)(F)F)n4)cc3C2=O)COC1 is ____.
99

###

Target: HDAC9 enzyme (Homo sapiens, UniProt Q9UKV0)
Construct: transducing full length HDAC9 gene into Sf-9 insect cells; made in house; host or cells: Sf-9 insect cells
Sequence (Q9UKV0 whole entry, species assumed): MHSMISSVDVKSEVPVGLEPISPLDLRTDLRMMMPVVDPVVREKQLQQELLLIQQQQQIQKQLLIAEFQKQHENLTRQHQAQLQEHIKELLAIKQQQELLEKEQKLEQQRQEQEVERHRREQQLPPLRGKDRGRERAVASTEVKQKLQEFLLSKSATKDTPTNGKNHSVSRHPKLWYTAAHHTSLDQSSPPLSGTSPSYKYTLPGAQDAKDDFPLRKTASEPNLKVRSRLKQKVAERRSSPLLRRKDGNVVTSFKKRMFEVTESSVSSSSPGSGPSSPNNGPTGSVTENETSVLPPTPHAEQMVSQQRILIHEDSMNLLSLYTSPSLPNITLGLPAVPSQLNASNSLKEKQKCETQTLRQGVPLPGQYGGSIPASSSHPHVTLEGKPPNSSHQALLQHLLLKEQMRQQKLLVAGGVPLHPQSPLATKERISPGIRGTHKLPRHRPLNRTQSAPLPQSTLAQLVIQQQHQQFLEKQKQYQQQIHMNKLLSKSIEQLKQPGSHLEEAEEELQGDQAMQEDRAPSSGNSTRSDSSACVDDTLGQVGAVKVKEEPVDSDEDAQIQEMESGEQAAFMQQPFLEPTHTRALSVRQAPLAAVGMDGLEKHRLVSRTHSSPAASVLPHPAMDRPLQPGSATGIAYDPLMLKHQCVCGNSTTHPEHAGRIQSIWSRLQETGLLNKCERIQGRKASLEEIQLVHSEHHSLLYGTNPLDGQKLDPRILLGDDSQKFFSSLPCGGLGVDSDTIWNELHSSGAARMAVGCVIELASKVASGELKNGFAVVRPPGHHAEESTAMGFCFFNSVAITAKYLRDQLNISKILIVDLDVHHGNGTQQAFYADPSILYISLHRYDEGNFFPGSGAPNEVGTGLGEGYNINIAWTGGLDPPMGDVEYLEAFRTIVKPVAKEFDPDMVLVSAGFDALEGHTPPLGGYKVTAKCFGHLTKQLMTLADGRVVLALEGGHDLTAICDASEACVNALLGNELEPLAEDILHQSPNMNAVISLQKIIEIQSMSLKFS
Assay: HDAC9 Enzyme Inhibitory Assay (HDAC-Glo class IIa)
Format: biochemical
Conditions: 1 μM test compound; wells without enzyme = 100% inhibition; read-out: HDAC9 inhibitory rate (%) (1 μM)
# inhibition at 1 µM annotations
API: value field is a number in %; no unit string.

CC1(C(=O)N[C@@H]2CCC[C@H]2N2Cc3ccc(-c4noc(C(F)(F)F)n4)cc3C2=O)COC1 [Example 151]    42
O=C(N[C@@H]1COCC[C@H]1N1Cc2ccc(-c3noc(C(F)(F)F)n3)cc2C1=O)[C@@H]1CC1(F)F [Example 149]    60
O=C(c1ccccc1)N1CCC(N2Cc3ncc(-c4noc(C(F)(F)F)n4)cc3C2=O)C1 (stereo not shown) [Example 70]    95
O=C(N[C@@H]1CCCC[C@H]1N1Cc2ccc(-c3noc(C(F)(F)F)n3)cc2C1=O)[C@H]1CC1(F)F [Example 148]    82
O=C(N[C@@H]1CCCC[C@H]1N1Cc2ccc(-c3noc(C(F)(F)F)n3)cc2C1=O)N1CCC1 [Example 159]    39

Which measured inhibition at 1 µM value corresponds to CN(C(=O)N[C@@H]1CCCC[C@H]1N1Cc2ccc(-c3noc(C(F)(F)F)n3)cc2C1=O)C1CC1 [Example 155] ?
54

For O=C1c2cc(-c3noc(C(F)(F)F)n3)ccc2CN1[C@@H]1COCC[C@H]1O [Example 179] , what is its reported inhibition at 1 µM?
84

###

Items are presented alongside their recorded inhibition at 1 µM.
Target: HDAC9 enzyme (Homo sapiens)
Construct: transducing full length HDAC9 gene into Sf-9 insect cells; made in house; host or cells: Sf-9 insect cells
Experiment: HDAC9 Enzyme Inhibitory Assay (HDAC-Glo class IIa)
Type: biochemical
Settings: 1 μM test compound; wells without enzyme = 100% inhibition; read-out: HDAC9 inhibitory rate (%) (1 μM)
Procedure: HDAC9 Enzyme Inhibitory Assay Enzyme was prepared by transducing full length HDAC9 gene into Sf-9 insect cells and purifying by Ni-NTA affinity column, and HDAC9 enzyme inhibitory activity was evaluated. Enzymes were used after preserved at −70° C. HDAC9 enzyme inhibitory activity of the test compound was measured using HDAC-Glo class IIa (Promega) according to the following experimental method. […]
Output spec: scalar in %, unitless text.

Answered cases to consult:
N[C@@H]1CCCC[C@H]1N1Cc2ccc(-c3noc(C(F)(F)F)n3)cc2C1=O (relative stereo) [Example 7]    72
Cc1ccc([C@@H]2CNCC[C@H]2N2Cc3ccc(-c4noc(C(F)(F)F)n4)cc3C2=O)cc1F (relative stereo)    98
CC1(C(=O)N[C@@H]2CCCC[C@H]2N2Cc3ccc(-c4noc(C(F)(F)F)n4)cc3C2=O)CNC1    26

What does the record list as inhibition at 1 µM for O=C(c1ccccc1)N1CC(N2Cc3ncc(-c4noc(C(F)(F)F)n4)cc3C2=O)C1 ?
89

inhibition at 1 µM for Cn1cncc1C(=O)N[C@@H]1CCCC[C@H]1N1Cc2ccc(-c3noc(C(F)(F)F)n3)cc2C1=O ?
73

What does the record list as inhibition at 1 µM for O=C(N[C@H]1CCOC[C@H]1N1Cc2ccc(-c3noc(C(F)(F)F)n3)cc2C1=O)C1CC1(F)F (single isomer, unassigned) ?
77

Would you kindly share the measured inhibition at 1 µM for O=C(Cc1ccc(F)cc1)N1CCCC(N2Cc3ncc(-c4noc(C(F)(F)F)n4)cc3C2=O)C1 (stereo not shown) ?
94
